Biological target: UGT8 (Mus musculus)
Construct: Groups of 5 male C57Bl/6 mice, 6-9 wks of age (Charles River Laboratories); tissue Charles River Laboratories; host or cells: mouse kidney (adult C57Bl/6) and mid-/hind brain (neonatal P14-P21 mice)
Sequence (Q64676 21-541): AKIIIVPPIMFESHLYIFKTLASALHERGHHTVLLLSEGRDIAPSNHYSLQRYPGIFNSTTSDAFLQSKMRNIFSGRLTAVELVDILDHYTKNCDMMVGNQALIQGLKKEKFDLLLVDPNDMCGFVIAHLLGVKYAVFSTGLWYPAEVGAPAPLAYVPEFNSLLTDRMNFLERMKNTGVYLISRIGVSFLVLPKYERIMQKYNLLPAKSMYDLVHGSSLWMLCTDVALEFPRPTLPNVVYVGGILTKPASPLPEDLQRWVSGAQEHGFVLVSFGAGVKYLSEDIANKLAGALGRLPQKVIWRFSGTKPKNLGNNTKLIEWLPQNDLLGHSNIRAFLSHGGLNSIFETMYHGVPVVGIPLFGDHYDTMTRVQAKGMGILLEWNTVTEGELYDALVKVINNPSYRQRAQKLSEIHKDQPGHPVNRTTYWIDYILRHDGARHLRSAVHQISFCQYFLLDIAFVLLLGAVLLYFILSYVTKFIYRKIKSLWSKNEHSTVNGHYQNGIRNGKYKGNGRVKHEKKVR
Test: Acute in vivo target engagement in neonatal mouse brain: inhibition of de novo GalCer and SFT synthesis (13C-Gal incorporation)
Conditions: neonatal mouse (P14-P21) brain, single oral dose 30 mg/kg, 5 hr
Quantity Kind: brain GalCer % inh

CNC(=O)c1csc2c(C(F)(F)F)cc(N3CCC(OC(=O)N[C@@H](C)COC(F)(F)F)CC3)nc12 ... A, A, A (A > 80%)
CNC(=O)c1csc2c(C(F)(F)F)cc(N3CCC(OC(=O)NC4CC4)CC3)nc12 ... A, A, A (A > 80%)

Measured values drawn from patent US11098056B2 for this set.
